Reported values of Mean fluorescence intensity for individual entries
Target or system: T1, human LAG-3 on cells (HEK293-hLAG-3 stable cell line) (human, UniProt P18627 23-525)
T1 sequence: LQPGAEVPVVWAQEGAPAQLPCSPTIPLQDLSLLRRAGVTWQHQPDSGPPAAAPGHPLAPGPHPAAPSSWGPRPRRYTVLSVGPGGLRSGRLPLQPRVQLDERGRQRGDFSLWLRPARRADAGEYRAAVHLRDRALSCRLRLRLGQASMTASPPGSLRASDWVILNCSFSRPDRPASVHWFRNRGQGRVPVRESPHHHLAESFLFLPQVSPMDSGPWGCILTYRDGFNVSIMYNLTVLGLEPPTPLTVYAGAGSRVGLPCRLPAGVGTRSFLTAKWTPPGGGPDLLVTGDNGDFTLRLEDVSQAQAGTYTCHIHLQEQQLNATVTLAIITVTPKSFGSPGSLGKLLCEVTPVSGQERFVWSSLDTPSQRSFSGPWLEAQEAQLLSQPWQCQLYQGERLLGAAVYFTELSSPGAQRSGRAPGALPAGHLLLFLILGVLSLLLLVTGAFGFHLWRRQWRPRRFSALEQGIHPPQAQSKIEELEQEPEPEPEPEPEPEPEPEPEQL
Assay name: FACS, HEK293-hLAG-3, antibody 0.013 nM
Property label: Mean fluorescence intensity

Binder	Numeric readout
556F6B8-5 humanized antibody (antibody, V domains shown) VH: QVQLQESGPGLVKPSETLSLTCTVSGGSISKYGVHWIRQPPGKGLEWIGVIWRGGITDYNAAFMSRVTISVDTSKNQFSLKLSSVTAADTAVYYCARWDGPLAMDYWGQGTTVTVSS VL: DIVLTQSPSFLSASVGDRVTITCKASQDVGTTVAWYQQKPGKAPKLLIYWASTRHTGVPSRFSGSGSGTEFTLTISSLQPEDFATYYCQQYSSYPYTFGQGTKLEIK	4
556F6B8-11 humanized antibody (antibody, V domains shown) VH: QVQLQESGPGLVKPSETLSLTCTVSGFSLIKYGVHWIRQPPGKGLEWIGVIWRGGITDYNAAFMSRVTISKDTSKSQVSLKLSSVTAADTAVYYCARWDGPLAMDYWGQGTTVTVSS VL: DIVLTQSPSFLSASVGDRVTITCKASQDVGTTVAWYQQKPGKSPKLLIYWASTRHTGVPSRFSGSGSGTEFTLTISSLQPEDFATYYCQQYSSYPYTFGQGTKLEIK	9
556F6B8 mouse-human chimeric antibody (antibody, V domains shown, also called mAb123-556F6B8; 556F8B8) VH: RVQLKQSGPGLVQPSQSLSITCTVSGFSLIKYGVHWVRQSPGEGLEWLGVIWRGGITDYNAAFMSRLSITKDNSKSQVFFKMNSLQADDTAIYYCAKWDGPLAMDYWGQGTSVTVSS VL: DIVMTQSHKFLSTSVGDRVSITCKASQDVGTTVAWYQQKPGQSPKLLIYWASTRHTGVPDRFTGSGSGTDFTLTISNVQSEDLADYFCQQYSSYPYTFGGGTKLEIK	6
556F6B8-9 humanized antibody (antibody, V domains shown) VH: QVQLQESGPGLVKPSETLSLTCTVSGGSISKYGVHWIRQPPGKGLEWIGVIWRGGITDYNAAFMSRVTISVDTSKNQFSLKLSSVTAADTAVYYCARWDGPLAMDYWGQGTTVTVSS VL: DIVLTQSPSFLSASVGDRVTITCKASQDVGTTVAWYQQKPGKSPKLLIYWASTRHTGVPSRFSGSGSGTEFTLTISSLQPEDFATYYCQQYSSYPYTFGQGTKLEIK	4
556F6B8-7 humanized antibody (antibody, V domains shown) VH: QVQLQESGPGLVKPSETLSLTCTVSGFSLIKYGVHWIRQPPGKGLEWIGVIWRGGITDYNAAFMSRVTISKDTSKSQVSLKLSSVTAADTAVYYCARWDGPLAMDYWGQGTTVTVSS VL: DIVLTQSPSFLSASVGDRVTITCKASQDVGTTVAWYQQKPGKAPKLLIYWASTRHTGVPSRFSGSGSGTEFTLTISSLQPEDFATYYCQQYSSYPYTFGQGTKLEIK	8
